# MEASURED_ON: human CB1 receptor (Homo sapiens)
# Sequence (P21554 whole entry): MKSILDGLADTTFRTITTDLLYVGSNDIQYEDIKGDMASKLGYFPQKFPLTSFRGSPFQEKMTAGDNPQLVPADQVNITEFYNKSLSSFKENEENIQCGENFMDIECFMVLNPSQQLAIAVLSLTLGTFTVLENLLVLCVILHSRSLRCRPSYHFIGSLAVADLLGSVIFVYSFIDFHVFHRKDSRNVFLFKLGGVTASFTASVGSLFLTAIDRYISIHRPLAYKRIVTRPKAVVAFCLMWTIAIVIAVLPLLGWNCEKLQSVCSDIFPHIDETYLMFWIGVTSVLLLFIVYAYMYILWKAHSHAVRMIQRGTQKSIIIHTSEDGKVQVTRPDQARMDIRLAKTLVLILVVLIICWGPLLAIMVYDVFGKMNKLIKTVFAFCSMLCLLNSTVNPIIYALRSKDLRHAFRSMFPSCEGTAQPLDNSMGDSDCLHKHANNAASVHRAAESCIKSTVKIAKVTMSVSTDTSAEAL
# ASSAY_SUMMARY: Functional cell-based assay, CB1 receptor mediated change in CRE β-gal expression (adenylate cyclase activity)
# Design: expressed in transfected cells; host or cells: SK-NC cells [sic], pcDNA3-CRE β-gal and pcDNA3 CB-1 (human)
Below: a set of entries, each annotated with reported IC50.

- COMPOUND: "CC12CCC(C1)C(C)(C)C2NC(=O)c1nn(Cc2ccccc2)c2c1CS(=O)(=O)CC2 (stereo not shown)"
  IC50: "60 nM"
- COMPOUND: "CC12CCC(C1)C(C)(C)C2NC(=O)c1nn(Cc2ccccc2)c2c1C[S+]([O-])CC2 (stereo not shown)"
  IC50: "6300 nM"
- COMPOUND: "C[C@@H](NC(=O)c1nn(Cc2ccccc2)c2c1CSCC2)c1ccccc1"
  IC50: "70 nM"
- COMPOUND: "CC12CCC(C1)C(C)(C)C2NC(=O)c1nn(Cc2ccccc2)c2c1CSCC2 (stereo not shown)"
  IC50: "30 nM"

* * *

# MEASURED_ON: human CB1 receptor (Homo sapiens)
# ASSAY_SUMMARY: Binding assay, cannabinoid CB1 receptor ([3H]-CP-55,940 displacement)
# Set-up: expressed in transfected cells; host or cells: SK-N-MC cells, pcDNA3 CB-1 (human), semi-purified membranes
# DETAILS: test concentration 0.2 μM (superscript a); read-out: CB1 binding percent inhibition
Below: a set of entries, each annotated with reported inhibition at 0.2 µM.

- COMPOUND: "CN1CCN(NC(=O)c2nn(-c3ccc(Cl)cc3Cl)c3c2CS(=O)(=O)C/C3=C\\c2ccc(F)cc2)CC1 [Cpd 109]"
  MEASURED_ON: "human CB1 receptor (Homo sapiens)"
  inhibition at 0.2 µM / %: 4
- COMPOUND: "O=S(=O)(/C=C/c1nn(-c2ccc(F)cc2F)c2c1CSCC2Cc1cccc(F)c1)NN1CCOCC1 (stereo not shown) [Cpd 41]"
  MEASURED_ON: "human CB1 receptor (Homo sapiens)"
  inhibition at 0.2 µM / %: 9
- COMPOUND: "CC1CCCC(C)N1NC(=O)c1nn(-c2ccc(Cl)cc2Cl)c2c1CS(=O)(=O)C/C2=C\\c1ccc(F)cc1 (stereo not shown) [Cpd 108]"
  MEASURED_ON: "human CB1 receptor (Homo sapiens)"
  inhibition at 0.2 µM / %: 88
- COMPOUND: "C[C@@H](NC(=O)c1nn(-c2ccc(Cl)cc2Cl)c2c1CS(=O)(=O)CC2)c1ccccc1 [Cpd 128]"
  MEASURED_ON: "human CB1 receptor (Homo sapiens)"
  inhibition at 0.2 µM / %: 5
- COMPOUND: "O=C(NNc1ccc(Cl)cc1Cl)c1nn(-c2ccc(Cl)cc2Cl)c2c1C[S+]([O-])C/C2=C\\c1ccc(F)cc1 (stereo not shown) [Cpd 77]"
  MEASURED_ON: "human CB1 receptor (Homo sapiens)"
  inhibition at 0.2 µM / %: 55
- COMPOUND: "O=C(c1nn(-c2ccc(Cl)cc2Cl)c2c1CSC/C2=C\\c1ccc(F)cc1)N1CCCC1 [Cpd 57]"
  MEASURED_ON: "human CB1 receptor (Homo sapiens)"
  inhibition at 0.2 µM / %: 56
- COMPOUND: "O=C(NCc1ccccn1)c1nn(-c2ccc(Cl)cc2Cl)c2c1CS(=O)(=O)C/C2=C\\c1ccc(F)cc1 [Cpd 73]"
  MEASURED_ON: "human CB1 receptor (Homo sapiens)"
  inhibition at 0.2 µM / %: 56

* * *

# MEASURED_ON: human CB-2 receptor (Homo sapiens)
# Construct: expressed in transfected cells; host or cells: SK-N-MC cells, pcDNA3 CB-2 (human), semi-purified membranes
# Sequence (P34972 whole entry): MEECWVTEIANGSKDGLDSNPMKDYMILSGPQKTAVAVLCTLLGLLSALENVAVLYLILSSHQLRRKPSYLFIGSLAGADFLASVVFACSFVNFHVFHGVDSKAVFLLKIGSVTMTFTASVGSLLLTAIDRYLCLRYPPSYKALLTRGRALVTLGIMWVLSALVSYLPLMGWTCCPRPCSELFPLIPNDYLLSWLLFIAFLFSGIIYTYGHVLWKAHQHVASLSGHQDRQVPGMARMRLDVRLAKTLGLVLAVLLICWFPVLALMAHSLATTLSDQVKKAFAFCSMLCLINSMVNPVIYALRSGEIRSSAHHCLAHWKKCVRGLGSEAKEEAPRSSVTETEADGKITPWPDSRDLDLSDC
# ASSAY_SUMMARY: Binding assay, cannabinoid CB2 receptor ([3H]-CP-55,940 displacement)
# DETAILS: read-out: CB2 binding percent inhibition

- COMPOUND_STRING: "CC(C)(C)OC(=O)N1CCN(NC(=O)c2nn(-c3ccc(Cl)cc3Cl)c3c2CSC/C3=C\\c2ccc(F)cc2)CC1"
  MEASURED_ON: "human CB-2 receptor (Homo sapiens)"
  inhibition at 0.2 µM: "0%"
- COMPOUND_STRING: "C[C@@H](NC(=O)c1nn(-c2ccc(Cl)cc2Cl)c2c1CS(=O)(=O)C/C2=C\\c1ccc(Cl)o1)c1ccccc1"
  MEASURED_ON: "human CB-2 receptor (Homo sapiens)"
  inhibition at 0.2 µM: "18%"
- COMPOUND_STRING: "CN(NC(=O)c1nn(-c2ccc(Cl)cc2)c2c1CS(=O)(=O)C/C2=C\\c1ccc(F)cc1)c1ccccc1"
  MEASURED_ON: "human CB-2 receptor (Homo sapiens)"
  inhibition at 0.2 µM: "9%"
- COMPOUND_STRING: "O=C(N[C@@H]1c2ccccc2C[C@@H]1O)c1nn(-c2ccc(Cl)cc2Cl)c2c1CSC/C2=C\\c1ccc(F)cc1"
  MEASURED_ON: "human CB-2 receptor (Homo sapiens)"
  inhibition at 0.2 µM: "25%"
- COMPOUND_STRING: "O=C(N[C@H]1c2ccccc2C[C@H]1O)c1nn(-c2ccc(Cl)cc2Cl)c2c1CSC/C2=C\\c1ccc(F)cc1"
  MEASURED_ON: "human CB-2 receptor (Homo sapiens)"
  inhibition at 0.2 µM: "25%"

* * *

# MEASURED_ON: human CB1 receptor (Homo sapiens)
# ASSAY_SUMMARY: Binding assay, cannabinoid CB1 receptor ([3H]-CP-55,940 displacement)
# Design: expressed in transfected cells; host or cells: SK-N-MC cells, pcDNA3 CB-1 (human), semi-purified membranes
pIC50: −log10 of the molar value.
pIC50 vs 8: at or above is y, below is n.

- MOLECULE: "CC12CCC(C1)C(C)(C)C2NC(=O)c1nn(Cc2ccccc2)c2c1CS(=O)(=O)CC2 (stereo not drawn) [Cpd 20]"
  QUALITATIVE_LABEL: "n"
- MOLECULE: "O=C(NN1CCCC1)c1nn(-c2ccc(Cl)cc2Cl)c2c1CSC/C2=C\\c1ccc(F)cc1 [Cpd 56]"
  QUALITATIVE_LABEL: "n"
- MOLECULE: "O=C(NN1CCCCCC1)c1nn(-c2ccc(Cl)cc2Cl)c2c1CS(=O)(=O)C/C2=C\\c1ccc(Cl)o1 [Cpd 120]"
  QUALITATIVE_LABEL: "n"
- MOLECULE: "C[C@@H](NC(=O)c1nn(-c2ccc(Cl)cc2Cl)c2c1CS(=O)(=O)C/C2=C\\c1ccc(F)cc1)c1ccccn1 [Cpd 124]"
  QUALITATIVE_LABEL: "y"
- MOLECULE: "C[C@@H](NC(=O)c1c2c(nn1-c1ccc(Cl)cc1Cl)/C(=C/c1ccc(F)cc1)CS(=O)(=O)C2)C1CCCCC1 [Cpd 84]"
  QUALITATIVE_LABEL: "y"
- MOLECULE: "C[C@@H](NC(=O)c1c2c(nn1-c1ccc(Cl)cc1Cl)/C(=C/c1ccc(F)cc1)CS(=O)(=O)C2)c1ccccc1 [Cpd 82]"
  QUALITATIVE_LABEL: "n"
- MOLECULE: "O=C(NN1CCCCC1)c1c2c(nn1-c1ccc(Cl)cc1Cl)/C(=C/c1ccc(F)cc1)CS(=O)(=O)C2 [Cpd 83]"
  QUALITATIVE_LABEL: "n"
- MOLECULE: "O=C(NNC1CCCCC1)c1nn(-c2ccc(Cl)cc2Cl)c2c1CSC/C2=C\\c1ccc(F)cc1 [Cpd 115]"
  QUALITATIVE_LABEL: "n"
- MOLECULE: "CC(C)(C)OC(=O)N1CCN(NC(=O)c2nn(-c3ccc(Cl)cc3Cl)c3c2CSC/C3=C\\c2ccc(F)cc2)CC1 [Cpd 64]"
  QUALITATIVE_LABEL: "n"

* * *

# MEASURED_ON: human CB-2 receptor (Homo sapiens)
# Construct: expressed in transfected cells; host or cells: SK-N-MC cells, pcDNA3 CB-2 (human), semi-purified membranes
# ASSAY_SUMMARY: Binding assay, cannabinoid CB2 receptor ([3H]-CP-55,940 displacement)
# DETAILS: test concentration 10 μM (superscript c); read-out: CB2 binding percent inhibition
EXPERIMENTAL_ENDPOINT: inhibition at 10 µM (%)

- MOLECULE: "C[C@H](NC(=O)/C=C/c1nn(Cc2ccccc2)c2c1CSCC2)c1ccccc1"
  UNIT_DESCRIPTOR: "%"
  RESULT_NUMBER: 47
- MOLECULE: "C[C@H](NC(=O)/C=C/c1nn(Cc2ccccc2)c2c1C[S+]([O-])CC2)c1ccccc1 (stereo partly drawn)"
  UNIT_DESCRIPTOR: "%"
  RESULT_NUMBER: 21
- MOLECULE: "C[C@@H](NC(=O)/C=C/c1nn(Cc2ccccc2)c2c1CS(=O)(=O)CC2)c1ccccc1"
  UNIT_DESCRIPTOR: "%"
  RESULT_NUMBER: 7
- MOLECULE: "CC(NS(=O)(=O)/C=C/c1c2c(nn1Cc1ccccc1)CC[S+]([O-])C2)C1CCCCC1 (stereo not drawn)"
  UNIT_DESCRIPTOR: "%"
  RESULT_NUMBER: 22
- MOLECULE: "CC(NS(=O)(=O)/C=C/c1c2c(nn1Cc1ccccc1)CC[S+]([O-])C2)c1ccccc1 (stereo not drawn)"
  UNIT_DESCRIPTOR: "%"
  RESULT_NUMBER: 2
- MOLECULE: "C[C@@H](NC(=O)/C=C/c1nn(Cc2ccccc2)c2c1C[S+]([O-])CC2)c1ccccc1 (stereo partly drawn)"
  UNIT_DESCRIPTOR: "%"
  RESULT_NUMBER: 28
